B1: CPEB3 Ribozyme (parent)
chain: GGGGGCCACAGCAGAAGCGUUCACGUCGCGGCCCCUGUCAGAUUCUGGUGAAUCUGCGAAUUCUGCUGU

Variants of: B1
Assay: self-cleavage, relative activity (ratio to wild type); higher = more cleavage; co-transcriptional
Assign T to entries whose self-cleavage meets or exceeds 0.4; assign F to the rest.

## Input For this variant, is measured self-cleavage 0.4 or higher? C33U C54A
## Output T

## Input For this variant, is measured self-cleavage 0.4 or higher? C18A U36G
## Output F

## Input For this variant, is measured self-cleavage 0.4 or higher? U49C U61C
## Output T

## Input For this variant, is measured self-cleavage 0.4 or higher? U49C G56U
## Output T

## Input For this variant, is measured self-cleavage 0.4 or higher? G30C C33G
## Output F

## Input For this variant, is measured self-cleavage 0.4 or higher? A16C G56A
## Output F

## Input For this variant, is measured self-cleavage 0.4 or higher? G17U C57A
## Output F

## Input For this variant, is measured self-cleavage 0.4 or higher? A10G G14C
## Output F

## Input For this variant, is measured self-cleavage 0.4 or higher? G19A C35A
## Output F

## Input For this variant, is measured self-cleavage 0.4 or higher? C27A U64C
## Output F

## Input For this variant, is measured self-cleavage 0.4 or higher? C24U U36A
## Output F

## Input For this variant, is measured self-cleavage 0.4 or higher? G41A U46G
## Output T

## Input For this variant, is measured self-cleavage 0.4 or higher? A16G C27U
## Output F

Hey, just so you know, these numbers are from the RNAGym collection of RNA variant scans (doi:10.7554/elife.80360).
